Target: 5-HT transporter (Rattus norvegicus, UniProt P31652)
Sequence (P31652 whole entry): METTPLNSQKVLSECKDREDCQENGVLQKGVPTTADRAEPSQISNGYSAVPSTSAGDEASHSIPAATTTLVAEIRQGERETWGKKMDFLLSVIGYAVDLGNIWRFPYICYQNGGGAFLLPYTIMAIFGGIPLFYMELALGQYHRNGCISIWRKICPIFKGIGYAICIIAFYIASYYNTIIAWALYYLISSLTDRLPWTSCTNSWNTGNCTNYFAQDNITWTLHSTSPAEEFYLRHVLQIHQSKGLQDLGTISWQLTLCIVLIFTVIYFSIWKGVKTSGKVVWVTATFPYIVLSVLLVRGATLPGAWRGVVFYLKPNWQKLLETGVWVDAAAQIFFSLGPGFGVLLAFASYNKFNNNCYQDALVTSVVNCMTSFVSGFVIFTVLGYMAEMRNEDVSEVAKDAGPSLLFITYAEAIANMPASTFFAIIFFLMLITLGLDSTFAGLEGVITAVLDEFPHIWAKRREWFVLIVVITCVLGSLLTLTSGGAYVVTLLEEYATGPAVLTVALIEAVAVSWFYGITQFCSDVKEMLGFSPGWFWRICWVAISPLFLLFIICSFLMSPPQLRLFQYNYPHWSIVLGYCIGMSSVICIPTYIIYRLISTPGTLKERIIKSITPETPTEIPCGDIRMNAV
pKi: −log10 of the molar value.
# cutoff 9 applies to pKi; >= gives satisfied, < gives not satisfied

[[record]]
compound = "c1ccc2cc(C3CC4CCC(C3)N4CCSc3cccc4cccnc34)ccc2c1 (stereo not shown)"
measured_target = "5-HT transporter (Rattus norvegicus, UniProt P31652)"
category = "satisfied"

[[record]]
compound = "C1=C(c2ccc3ccccc3c2)CC2CCC1N2CCOc1cccc2c1OCCO2 (stereo not shown)"
measured_target = "5-HT transporter (Rattus norvegicus, UniProt P31652)"
category = "satisfied"

[[record]]
compound = "C1=C(c2c[nH]c3ccccc23)CC2CCC1N2CCOc1cccc2ncccc12 (stereo not shown)"
measured_target = "5-HT transporter (Rattus norvegicus, UniProt P31652)"
category = "not satisfied"

[[record]]
compound = "FC(F)(F)c1cccc(OCCN2C3C=C(c4ccc5ccccc5c4)CC2CC3)c1 (stereo not shown)"
measured_target = "5-HT transporter (Rattus norvegicus, UniProt P31652)"
category = "not satisfied"

[[record]]
compound = "c1ccc2cc(C3CC4CCC(C3)N4CCOc3cccc4cccnc34)ccc2c1 (stereo not shown)"
measured_target = "5-HT transporter (Rattus norvegicus, UniProt P31652)"
category = "satisfied"

[[record]]
compound = "Clc1cc(NCCN2C3C=C(c4ccc5ccccc5c4)CC2CC3)c2ncccc2c1 (stereo not shown)"
measured_target = "5-HT transporter (Rattus norvegicus, UniProt P31652)"
category = "not satisfied"

[[record]]
compound = "c1ccc2cc(C3CC4CCC(C3)N4CCOc3cccc4[nH]ccc34)ccc2c1 (stereo not shown)"
measured_target = "5-HT transporter (Rattus norvegicus, UniProt P31652)"
category = "satisfied"

[[record]]
compound = "COc1cc(NCCN2C3C=C(c4ccc5ccccc5c4)CC2CC3)c2ncccc2c1 (stereo not shown)"
measured_target = "5-HT transporter (Rattus norvegicus, UniProt P31652)"
category = "not satisfied"

